biological target: Phosphatidylinositol 4-kinase alpha (Homo sapiens, UniProt P42356)
Sequence (P42356 whole entry): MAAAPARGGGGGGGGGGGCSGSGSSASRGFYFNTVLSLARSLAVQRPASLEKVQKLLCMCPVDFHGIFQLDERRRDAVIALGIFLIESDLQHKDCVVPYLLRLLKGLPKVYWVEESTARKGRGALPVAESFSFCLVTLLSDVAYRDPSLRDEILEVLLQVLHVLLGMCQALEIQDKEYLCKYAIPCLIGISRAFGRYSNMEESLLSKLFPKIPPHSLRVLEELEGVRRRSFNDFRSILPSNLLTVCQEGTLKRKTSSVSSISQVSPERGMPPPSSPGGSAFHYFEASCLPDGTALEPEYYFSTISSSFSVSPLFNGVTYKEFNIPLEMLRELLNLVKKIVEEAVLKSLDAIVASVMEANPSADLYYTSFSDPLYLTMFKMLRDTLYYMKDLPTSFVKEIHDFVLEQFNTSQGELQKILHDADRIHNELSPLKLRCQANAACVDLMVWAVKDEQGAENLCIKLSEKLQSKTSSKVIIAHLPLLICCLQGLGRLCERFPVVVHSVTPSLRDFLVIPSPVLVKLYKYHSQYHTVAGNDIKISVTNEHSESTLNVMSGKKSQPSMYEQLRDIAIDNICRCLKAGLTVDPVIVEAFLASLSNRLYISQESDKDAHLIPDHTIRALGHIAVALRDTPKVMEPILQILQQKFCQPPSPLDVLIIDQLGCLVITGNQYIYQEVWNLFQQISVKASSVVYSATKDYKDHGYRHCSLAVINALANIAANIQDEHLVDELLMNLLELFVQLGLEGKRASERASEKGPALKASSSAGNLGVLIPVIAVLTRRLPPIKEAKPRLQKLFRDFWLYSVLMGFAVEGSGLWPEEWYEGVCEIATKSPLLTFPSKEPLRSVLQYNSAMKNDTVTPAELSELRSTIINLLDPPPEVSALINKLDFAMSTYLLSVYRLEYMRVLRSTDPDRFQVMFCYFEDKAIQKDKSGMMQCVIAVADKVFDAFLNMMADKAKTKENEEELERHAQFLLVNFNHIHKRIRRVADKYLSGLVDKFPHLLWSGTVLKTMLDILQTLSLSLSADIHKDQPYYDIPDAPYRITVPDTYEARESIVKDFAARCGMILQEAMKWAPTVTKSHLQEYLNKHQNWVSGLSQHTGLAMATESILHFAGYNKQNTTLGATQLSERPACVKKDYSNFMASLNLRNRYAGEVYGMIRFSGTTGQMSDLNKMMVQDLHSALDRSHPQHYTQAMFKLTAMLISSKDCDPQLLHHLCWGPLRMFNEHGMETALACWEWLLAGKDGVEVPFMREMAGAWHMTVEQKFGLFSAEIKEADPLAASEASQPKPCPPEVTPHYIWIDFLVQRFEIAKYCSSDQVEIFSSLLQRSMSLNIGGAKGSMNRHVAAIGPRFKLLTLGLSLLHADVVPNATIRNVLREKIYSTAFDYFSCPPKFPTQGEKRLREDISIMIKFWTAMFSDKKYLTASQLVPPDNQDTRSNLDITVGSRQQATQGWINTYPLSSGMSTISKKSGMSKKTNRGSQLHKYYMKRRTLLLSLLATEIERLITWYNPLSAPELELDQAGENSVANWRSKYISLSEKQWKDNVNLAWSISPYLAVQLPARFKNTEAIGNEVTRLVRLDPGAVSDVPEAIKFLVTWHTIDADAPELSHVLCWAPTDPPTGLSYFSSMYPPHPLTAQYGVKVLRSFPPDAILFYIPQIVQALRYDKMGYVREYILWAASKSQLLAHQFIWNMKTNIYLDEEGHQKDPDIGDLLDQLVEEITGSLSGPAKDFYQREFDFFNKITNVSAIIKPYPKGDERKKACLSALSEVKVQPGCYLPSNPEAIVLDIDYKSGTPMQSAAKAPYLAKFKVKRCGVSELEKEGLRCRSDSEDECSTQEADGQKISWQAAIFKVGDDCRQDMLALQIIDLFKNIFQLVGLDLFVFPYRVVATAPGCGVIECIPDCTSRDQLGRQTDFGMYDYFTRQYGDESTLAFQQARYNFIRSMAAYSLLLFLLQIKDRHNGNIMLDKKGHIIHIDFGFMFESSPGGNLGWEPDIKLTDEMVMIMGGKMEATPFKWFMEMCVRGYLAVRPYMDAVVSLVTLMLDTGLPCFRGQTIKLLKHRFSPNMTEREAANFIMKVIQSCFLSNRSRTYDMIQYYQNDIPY
result type: IC50 (µM)

>>> reported_result("COc1ccc(-c2ccc3nc(N)n(-c4ccccc4)c(=O)c3c2)cc1NS(=O)(=O)c1ccc(F)cc1F")
0.316

P = COc1ncc(-c2ccc3nc(N)n(-c4ccccc4)c(=O)c3c2)cc1NS(=O)(=O)c1ccc(C)cc1
Q = COc1ncc(-c2ccc3nc(N)n(-c4ccccc4)c(=O)c3c2)cc1NS(=O)(=O)c1cccc(C)c1
## Task Which is greater in IC50, the first item P or the second item Q ? Label of pick, please.
## Result P
(P: 0.0158 µM, Q: 0.00398 µM)
